Hi there, I'd appreciate the recorded selectivity ratio for every entry that follows.
experimental.details: Ratio of IC50 for HEK293 cells to IC50 for human MCF7 cells
Type: toxicity
measurement.context: HEK293 cells versus MCF7 cells, read-out: Ratio IC50
Number only, please.

// selectivity ratio lookup, compound = CN(C)c1ccc(/C=C2/S/C(=N/c3ccccc3)N(Cc3ccncc3)C2=O)cc1 , result: 1.6

According to the records, this compound O=C1/C(=C\c2ccc(O)cc2)S/C(=N/c2ccccc2)N1Cc1ccncc1 displays selectivity ratio of 7.5

Lookup result for COc1ccc(/C=C2/S/C(=N/c3ccccc3)N(Cc3ccncc3)C2=O)cc1OC ; measured selectivity ratio: 2.1

Form: compound = Cc1ccc(/C=C2/S/C(=N/c3ccccc3)N(Cc3ccncc3)C2=O)cc1 ; selectivity ratio = 1.3

Sure, the documented selectivity ratio for O=C1/C(=C\c2cccc(O)c2)S/C(=N/c2ccccc2)N1Cc1ccncc1 is 3.4

selectivity ratio measured on O=C1/C(=C\c2ccc(Cl)cc2)S/C(=N/c2ccccc2)N1Cc1ccncc1 = 1.1

Form field selectivity ratio, entry O=C1/C(=C\c2ccc3c(c2)OCO3)S/C(=N/c2ccccc2)N1Cc1ccncc1 : 1.8

The recorded selectivity ratio for COc1ccc(/C=C2/S/C(=N/c3ccccc3)N(Cc3ccncc3)C2=O)cc1 is 1.5

According to the records, this compound CCOc1cc(/C=C2/S/C(=N/c3ccccc3)N(Cc3ccncc3)C2=O)ccc1O displays selectivity ratio of 2.3

GET /value?item= O=C1/C(=C\c2cccc(Cl)c2)S/C(=N/c2ccccc2)N1Cc1ccncc1 &field=selectivity ratio returns 2.4

Per the record, COc1ccc(OC)c(/C=C2/S/C(=N/c3ccccc3)N(Cc3ccncc3)C2=O)c1 has selectivity ratio of 2.1

compound O=C1/C(=C\c2ccccn2)S/C(=N/c2ccccc2)N1Cc1ccncc1 , selectivity ratio observed: 7.6

Please fill in: selectivity ratio reported for O=C1CS/C(=N/c2ccccc2)N1Cc1ccncc1 = 1.5

Per the records, this compound ( O=C1/C(=C\c2ccc(O)c(O)c2)S/C(=N/c2ccccc2)N1Cc1ccncc1 ) has selectivity ratio equal to 18.5

Note to self: selectivity ratio recorded for COc1cc(/C=C2/S/C(=N/c3ccccc3)N(Cc3ccncc3)C2=O)ccc1O was 2.4

According to the records, this compound S=C(NCc1ccncc1)Nc1ccccc1 displays selectivity ratio of 1.2

Recorded result, O=C1/C(=C\c2ccccc2)S/C(=N/c2ccccc2)N1Cc1ccncc1 , selectivity ratio: 2.4

Notebook: CC(C)c1ccc(/C=C2/S/C(=N/c3ccccc3)N(Cc3ccncc3)C2=O)cc1 , selectivity ratio read as 2.5

Record summary for O=C1/C(=C\c2ccc([N+](=O)[O-])cc2)S/C(=N/c2ccccc2)N1Cc1ccncc1 : reported selectivity ratio = 19.2

Short answer for Cc1ccc(/C=C2/S/C(=N/c3ccccc3)N(Cc3ccncc3)C2=O)s1 : selectivity ratio was 5.1

====

Exercise: state measured selectivity ratio for each of the compounds provided.
experimental.details: Ratio of IC50 for HEK293 cells to IC50 for human HepG2 cells
Assay type: toxicity
measurement.context: HEK293 cells versus HepG2 cells, read-out: Ratio IC50
I'd appreciate a reply containing only the number, no unit.

The compound identified as O=C1/C(=C\c2ccc(O)c(O)c2)S/C(=N/c2ccccc2)N1Cc1ccncc1 registered its selectivity ratio at 14.2

Just so you know, measured selectivity ratio for O=C1/C(=C\c2ccc3c(c2)OCO3)S/C(=N/c2ccccc2)N1Cc1ccncc1 came out at 2.6

Form: compound = O=C1CS/C(=N/c2ccccc2)N1Cc1ccncc1 ; selectivity ratio = 3.8

// selectivity ratio lookup, compound = O=C1/C(=C\c2ccccc2)S/C(=N/c2ccccc2)N1Cc1ccncc1 , result: 2.5

// sample Cc1ccc(/C=C2/S/C(=N/c3ccccc3)N(Cc3ccncc3)C2=O)s1 , its selectivity ratio was 6.3

Summary for this compound, O=C1/C(=C\c2ccc(Cl)cc2)S/C(=N/c2ccccc2)N1Cc1ccncc1 : selectivity ratio is 1.4

Recorded selectivity ratio (compound O=C1/C(=C\c2cccc(O)c2)S/C(=N/c2ccccc2)N1Cc1ccncc1 ): 8.5

For record O=C1/C(=C\c2cccc(Cl)c2)S/C(=N/c2ccccc2)N1Cc1ccncc1 the listed selectivity ratio is 2.4

compound O=C1/C(=C\c2ccc([N+](=O)[O-])cc2)S/C(=N/c2ccccc2)N1Cc1ccncc1 , selectivity ratio observed: 13.2

Form: compound = O=C1/C(=C\c2ccccn2)S/C(=N/c2ccccc2)N1Cc1ccncc1 ; selectivity ratio = 5.2

Sure, the documented selectivity ratio for CC(C)c1ccc(/C=C2/S/C(=N/c3ccccc3)N(Cc3ccncc3)C2=O)cc1 is 4.2

compound COc1ccc(/C=C2/S/C(=N/c3ccccc3)N(Cc3ccncc3)C2=O)cc1 , selectivity ratio observed: 2.5

S=C(NCc1ccncc1)Nc1ccccc1 has a reported selectivity ratio of 2.4

Lab note: measured selectivity ratio of CN(C)c1ccc(/C=C2/S/C(=N/c3ccccc3)N(Cc3ccncc3)C2=O)cc1 was 2.3

The reported value for CCOc1cc(/C=C2/S/C(=N/c3ccccc3)N(Cc3ccncc3)C2=O)ccc1O in terms of selectivity ratio is 2.2

So, COc1ccc(OC)c(/C=C2/S/C(=N/c3ccccc3)N(Cc3ccncc3)C2=O)c1 ? Its selectivity ratio was 2.2

Lab note: COc1ccc(/C=C2/S/C(=N/c3ccccc3)N(Cc3ccncc3)C2=O)cc1OC gave selectivity ratio of 5.9

Value of measured selectivity ratio for the entry O=C1/C(=C\c2ccc(O)cc2)S/C(=N/c2ccccc2)N1Cc1ccncc1 : 12

response.value for Cc1ccc(/C=C2/S/C(=N/c3ccccc3)N(Cc3ccncc3)C2=O)cc1 (field: selectivity ratio) = 2.5

Query COc1cc(/C=C2/S/C(=N/c3ccccc3)N(Cc3ccncc3)C2=O)ccc1O yields selectivity ratio of 2.3

====

tgt: Carbonic anhydrase 9 (Homo sapiens)
experimental.details: Inhibition of human carbonic anhydrase 9 using 4-NPA as substrate after 3 mins by spectrophotometric analysis
Provide the recorded pIC50 for the entries that follow.
In plain terms, pIC50 is the concentration in mol/L turned into minus its base-10 logarithm.

// field: pIC50; key: O=C1/C(=C\c2ccccc2)S/C(=N/c2ccccc2)N1Cc1ccncc1 ; value = 4.29

Value of pIC50 reported for the molecule COc1ccc(OC)c(/C=C2/S/C(=N/c3ccccc3)N(Cc3ccncc3)C2=O)c1 is 4.78

What the record says about O=C1/C(=C\c2ccc3c(c2)OCO3)S/C(=N/c2ccccc2)N1Cc1ccncc1 : pIC50 is 4.23

According to the records, this molecule COc1cc(/C=C2/S/C(=N/c3ccccc3)N(Cc3ccncc3)C2=O)ccc1O displays pIC50 of 4.22

So for O=C1/C(=C\c2ccc([N+](=O)[O-])cc2)S/C(=N/c2ccccc2)N1Cc1ccncc1 , the logged pIC50 turned out to be 5.79

# pIC50 (molecule: Cc1ccc(/C=C2/S/C(=N/c3ccccc3)N(Cc3ccncc3)C2=O)s1 ) is 5.00

Entry O=C1CS/C(=N/c2ccccc2)N1Cc1ccncc1 — recorded pIC50 = 4.58

O=C1/C(=C\c2ccc(Cl)cc2)S/C(=N/c2ccccc2)N1Cc1ccncc1 yielded pIC50 of 4.40

Record CN(C)c1ccc(/C=C2/S/C(=N/c3ccccc3)N(Cc3ccncc3)C2=O)cc1 , field pIC50: 4.48

get_value(item= O=C1/C(=C\c2ccccn2)S/C(=N/c2ccccc2)N1Cc1ccncc1 , readout=pIC50) returns 5.18

====

Assignment: determine reported IC50 for the given compounds.
tgt: Carbonic anhydrase 9 (Homo sapiens, UniProt Q16790)
experimental.details: Binding affinity to human carbonic anhydrase 9 by spectrofluorimetric analysis
Respond numerically; units are µM and should not be typed.

// IC50 value for O=C1/C(=C\c2ccc(O)c(O)c2)S/C(=N/c2ccccc2)N1Cc1ccncc1 : 2.32

According to the records, this compound O=C1/C(=C\c2ccc([N+](=O)[O-])cc2)S/C(=N/c2ccccc2)N1Cc1ccncc1 displays IC50 of 11.2

====

tgt: UniProt:Q16790
experimental.details: Inhibition of human carbonic anhydrase 9 using 4-NPA as substrate after 3 mins by spectrophotometric analysis
Consider the following compounds; for each one, report its log10 IC50.
Could you please treat all values as log10 of IC50 in µM?

Field log10 IC50 (entry O=C1/C(=C\c2ccc(O)c(O)c2)S/C(=N/c2ccccc2)N1Cc1ccncc1 ) reads 0.26

Form: compound = S=C(NCc1ccncc1)Nc1ccccc1 ; log10 IC50 = 1.25

Query O=C1/C(=C\c2cccc(O)c2)S/C(=N/c2ccccc2)N1Cc1ccncc1 yields log10 IC50 of 1.03

Just so you know, measured log10 IC50 for COc1ccc(/C=C2/S/C(=N/c3ccccc3)N(Cc3ccncc3)C2=O)cc1OC came out at 1.32

// recorded log10 IC50 for Cc1ccc(/C=C2/S/C(=N/c3ccccc3)N(Cc3ccncc3)C2=O)cc1 : 1.76

Value of log10 IC50 reported for the compound CC(C)c1ccc(/C=C2/S/C(=N/c3ccccc3)N(Cc3ccncc3)C2=O)cc1 is 1.80

Record COc1ccc(/C=C2/S/C(=N/c3ccccc3)N(Cc3ccncc3)C2=O)cc1 , field log10 IC50: 1.61

Looking up O=C1/C(=C\c2ccc(O)cc2)S/C(=N/c2ccccc2)N1Cc1ccncc1 , I found its log10 IC50 recorded as 0.83

Entry O=C1/C(=C\c2cccc(Cl)c2)S/C(=N/c2ccccc2)N1Cc1ccncc1 , log10 IC50 reported as 1.64

Consider CCOc1cc(/C=C2/S/C(=N/c3ccccc3)N(Cc3ccncc3)C2=O)ccc1O . Its measured log10 IC50 is 1.58
